tested system: GST-tagged ROR gamma ligand binding domain (LBD) (Homo sapiens)
Construct: purchased Invitrogen
Sequence (P51449 269-508 limits assumed): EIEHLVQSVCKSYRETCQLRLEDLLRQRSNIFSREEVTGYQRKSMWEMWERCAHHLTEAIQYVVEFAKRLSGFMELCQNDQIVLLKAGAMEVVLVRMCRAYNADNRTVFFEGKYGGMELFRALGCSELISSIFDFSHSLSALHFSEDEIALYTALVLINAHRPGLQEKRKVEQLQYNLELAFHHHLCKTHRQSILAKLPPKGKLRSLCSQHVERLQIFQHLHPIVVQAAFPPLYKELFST
protocol: TR-FRET assay for ROR gamma (LanthaScreen co-activator peptide recruitment)
Type: biochemical
run parameters: compound concentration 10 μM; TR-FRET ratio 520/495, percent of control
parameter measured: inhibition at 10 µM (%)

- molecule: "CCC(F)(F)c1ccc(CC(=O)Nc2ccc(-c3nccnc3-c3ccccc3F)cc2)cc1"
  val: 83.8
- molecule: "CC(O)C(F)(F)c1ccc(CC(=O)Nc2ccc(-c3nccnc3-c3ccc(F)cc3Cl)cc2)cc1 (stereo not drawn)"
  val: 72.8
- molecule: "CCC(F)(F)c1ccc(CC(=O)Nc2ccc(-c3ncccc3-c3ccc(Cl)cc3)cc2)cc1"
  val: 86.2
- molecule: "CCC(F)(F)c1ccc(CC(=O)Nc2ccc(-c3nccnc3O[C@H](C)c3ccccc3Cl)cc2)cc1"
  val: 78.2
- molecule: "CCC(F)(F)c1ccc(CC(=O)Nc2ccc(-c3cnn(C(C)(C)C)c3-c3ccc(F)cc3)cc2)cc1"
  val: 38.3
- molecule: "CCC(F)(F)c1ccc(CC(=O)Nc2ccc(-c3nccnc3-c3ccc(F)cc3C)cc2)cc1"
  val: 84.1
- molecule: "CC(O)C(F)(F)c1ccc(CC(=O)Nc2ccc(-c3nccnc3N[C@@H](C)c3ccccc3Cl)c(F)c2)cc1 (stereo partly drawn)"
  val: 89.9
- molecule: "CCC(F)(F)c1ccc(CC(=O)Nc2ccc(-c3cccnc3-c3ccc(Cl)cc3)cc2)cc1"
  val: 66.8
- molecule: "CC(O)C(F)(F)c1ccc(CC(=O)Nc2ccc(-c3nccnc3N3CCC(F)(F)CC3)cc2)cc1 (stereo not drawn)"
  val: 71.2
- molecule: "CCc1ccccc1-c1nccnc1-c1ccc(NC(=O)Cc2ccc(C(F)(F)C(C)O)cc2)cc1 (stereo not drawn)"
  val: 76.9
- molecule: "CCC(F)(F)c1ccc(CC(=O)Nc2ccc(-c3nccnc3O[C@@H](C)c3ccccc3Cl)cc2)cc1"
  val: 79.6
- molecule: "CCC(F)(F)c1ccc(CC(=O)Nc2ccc(-c3nccnc3N[C@H](C)c3ccccc3)cc2)cc1"
  val: 79.7
- molecule: "CCC(F)(F)c1ccc(CC(=O)Nc2ccc(-c3nccnc3-c3ccc(Cl)cc3)cc2)cc1"
  val: 81.5
- molecule: "CC(O)C(F)(F)c1ccc(CC(=O)Nc2ccc(-c3nccnc3N[C@@H](C)c3ccc(Cl)cc3)cc2)cc1 (stereo partly drawn)"
  val: 93.4
- molecule: "CC(O)C(F)(F)c1ccc(CC(=O)Nc2ccc(-c3nccnc3-c3cccc(Cl)c3)cc2)cc1 (stereo not drawn)"
  val: 77.8

###

tested system: GST-tagged ROR gamma ligand binding domain (LBD) (Homo sapiens)
pIC50: −log10 of the molar value.
Listed next: entries and their corresponding pIC50.
parameter measured: pIC50

- compound: "CCC(F)(F)c1ccc(CC(=O)Nc2ccc(-c3nccnc3OC(C)c3ccccc3)cc2)cc1 (stereo not shown) [Example 76]"
  tested system: "GST-tagged ROR gamma ligand binding domain (LBD) (Homo sapiens)"
  val: "6.30 to 7.00"
- compound: "CCC(F)(F)c1ccc(CC(=O)Nc2ccc(-c3nccnc3-c3ccc(Cl)cc3)cc2)cc1 [Example 1]"
  tested system: "GST-tagged ROR gamma ligand binding domain (LBD) (Homo sapiens)"
  val: "> 7.30"
- compound: "CCC(F)(F)c1ccc(CC(=O)Nc2ccc(-c3nccnc3-c3ccc(C)cc3F)cc2)cc1 [Example 48]"
  tested system: "GST-tagged ROR gamma ligand binding domain (LBD) (Homo sapiens)"
  val: "> 7.30"
- compound: "CCC(F)(F)c1ccc(CC(=O)Nc2ccc(-c3nccnc3NC(C)c3ccccc3)cc2)cc1 (stereo not shown) [Example 58]"
  tested system: "GST-tagged ROR gamma ligand binding domain (LBD) (Homo sapiens)"
  val: "6.30 to 7.00"
- compound: "CCC(F)(F)c1ccc(CC(=O)Nc2ccc(-c3nccnc3N[C@@H](C)c3cccc(Cl)c3)cc2)cc1 [Example 64]"
  tested system: "GST-tagged ROR gamma ligand binding domain (LBD) (Homo sapiens)"
  val: "6.30 to 7.00"
- compound: "CCC(F)(F)c1ccc(CC(=O)Nc2ccc(-c3nccnc3-c3ccc(Cl)cc3F)cc2)cc1 [Example 6]"
  tested system: "GST-tagged ROR gamma ligand binding domain (LBD) (Homo sapiens)"
  val: "> 7.30"
- compound: "CC(O)C(F)(F)c1ccc(CC(=O)Nc2ccc(-c3nccnc3O[C@@H](C)c3ccccc3Cl)cc2)cc1 (stereo partly shown) [Example 86]"
  tested system: "GST-tagged ROR gamma ligand binding domain (LBD) (Homo sapiens)"
  val: "7.00 to 7.30"
- compound: "CCC(F)(F)c1ccc(CC(=O)Nc2ccc(-c3nccnc3N[C@@H](C)c3ccccc3)cc2)cc1 [Example 61]"
  tested system: "GST-tagged ROR gamma ligand binding domain (LBD) (Homo sapiens)"
  val: "7.00 to 7.30"
- compound: "CCC(F)(F)c1ccc(CC(=O)Nc2ccc(-c3nccnc3-c3ccc(Cl)cc3Cl)cc2)cc1 [Example 50]"
  tested system: "GST-tagged ROR gamma ligand binding domain (LBD) (Homo sapiens)"
  val: "> 7.30"
- compound: "CCc1ccccc1-c1nccnc1-c1ccc(NC(=O)Cc2ccc(C(F)(F)C(C)O)cc2)cc1 (stereo not shown) [Example 40]"
  tested system: "GST-tagged ROR gamma ligand binding domain (LBD) (Homo sapiens)"
  val: "> 7.30"
- compound: "CCC(F)(F)c1ccc(CC(=O)Nc2ccc(-c3nccnc3N[C@@H](C)c3ccc(F)cc3C)cc2)cc1 [Example 67]"
  tested system: "GST-tagged ROR gamma ligand binding domain (LBD) (Homo sapiens)"
  val: "> 7.30"
- compound: "CCC(F)(F)c1ccc(CC(=O)Nc2ccc(-c3nccnc3-c3ccc(F)cc3C)cc2)cc1 [Example 44]"
  tested system: "GST-tagged ROR gamma ligand binding domain (LBD) (Homo sapiens)"
  val: "> 7.30"
- compound: "CC(O)C(F)(F)c1ccc(CC(=O)Nc2ccc(-c3nccnc3-c3ccc(F)cc3)cc2)cc1 (stereo not shown) [Example 8]"
  tested system: "GST-tagged ROR gamma ligand binding domain (LBD) (Homo sapiens)"
  val: "6.30 to 7.00"
